Measured BTK_I_binding pIC50 by item
Target: unphosphorylated-BTK kinase domain (UP-BTK), GST-tagged human BTK (389-659aa) (Homo sapiens (Human))
Sequence (Q06187 389-659): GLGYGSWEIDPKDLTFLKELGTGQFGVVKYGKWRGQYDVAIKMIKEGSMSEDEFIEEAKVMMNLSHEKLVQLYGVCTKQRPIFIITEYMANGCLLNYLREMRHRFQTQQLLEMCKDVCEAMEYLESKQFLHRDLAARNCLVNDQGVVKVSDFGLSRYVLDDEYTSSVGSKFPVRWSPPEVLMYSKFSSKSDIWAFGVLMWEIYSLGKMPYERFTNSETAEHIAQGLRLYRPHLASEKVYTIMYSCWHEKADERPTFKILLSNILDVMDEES
Assay: BTK Kinase Lanthascreen Binding Assay
Details: compound, 50 nM Tracer 236, 2 nM anti-GST antibody, 60 minutes; pIC50 = negative log of the IC50 in molar
reported_endpoint: BTK_I_binding pIC50

• Cc1cc(Oc2ccccc2)ccc1N1C(=O)Nc2c(C(=O)N[C@H]3CC[C@H](O)CC3)sc3nccc1c23 [Example 15] = 7.21
• N[C@@H]1CCC[C@H]1NC(=O)c1sc2nccc3c2c1NC(=O)N3c1ccc(Oc2ccccc2)nc1 [Example 269] = 6.00
• Cc1cc(Oc2ccccc2)ccc1N1C(=O)Nc2c(C(=O)N[C@@H]3CCC[C@H]3NC(=O)CN)sc3nccc1c23 (single isomer, unassigned) [Example 113] = 7.88
• CC(=O)N[C@@H]1CCC[C@@H](NC(=O)c2sc3nccc4c3c2NC(=O)N4c2ccc(Oc3ccccc3)cc2C)C1 (single isomer, unassigned) [Example 195] = 7.55
• C=CC(=O)N[C@H]1CCC[C@H]1NC(=O)c1sc2nccc3c2c1NC(=O)N3c1ccc(OC(C)C)cc1C (single isomer, unassigned) [Example 165] = 8.30
• Cc1cc(Oc2ccccc2)ccc1N1C(=O)Nc2c(C(=O)N[C@@H]3CCC[C@H](N(C)C)C3)sc3nccc1c23 [Example 24] = 6.59
• Cc1cc(Oc2ccccc2)ccc1N1C(=O)Nc2c(C(=O)N[C@H]3CC[C@H](O)CC3)sc3nccc1c23 (single isomer, unassigned) [Example 85] = 7.67
• C=CC(=O)N[C@H]1CCC[C@@H]1NC(=O)c1sc2nccc3c2c1NC(=O)N3c1ccc(Oc2ccccc2)cc1C (single isomer, unassigned) [Example 56] = 5.77
• CC(=O)N[C@H]1CCC[C@H]1NC(=O)c1sc2nccc3c2c1NC(=O)N3c1ccc(Oc2ccccc2)cc1C [Example 37] = 6.68
• Cc1cc(Oc2ccccc2)ncc1N1C(=O)Nc2c(C(=O)N[C@@H]3CCC[C@@H]3N)sc3nccc1c23 (single isomer, unassigned) [Example 170] = 7.02
• CC(=O)N[C@H]1CCC[C@H](NC(=O)c2sc3nccc4c3c2NC(=O)N4c2ccc(Oc3ccccc3)cc2C)C1 (single isomer, unassigned) [Example 253] = 6.63
• Cc1cc(Oc2ccccc2)ccc1N1C(=O)Nc2c(C(=O)N[C@H]3CCCC[C@@H]3N)sc3nccc1c23 [Example 58] = 5.51
